Cited source for all entries: paper PMC3175016

We begin with a simple list: items and their reported Twenty-four-hour urine volume.
- System: male Fischer 344 rats
- MEASUREMENT PROTOCOL: Urine volume after a single i.p. dose
- Format: in vivo
- ASSAY CONTEXT: dose 0.4 (head mg/kg; text mmol/kg), i.p. in corn oil, mean ± SE, N = 3–4
Marks after values point to notes of the source that are not given here.

[[record]]
compound = "Cc1cc(C)cc(N2C(=O)CSC2=O)c1 [DMPT]"
result = "9.9 ± 2.2*,^a ml"

[[record]]
compound = "O=C(O)CSC(=O)Nc1cc(Cl)cc(Cl)c1 [DCTA]"
result = "13.1 ± 2.4^b ml"

[[record]]
compound = "O=C1CSC(=O)N1c1cc(C(F)(F)F)cc(C(F)(F)F)c1 [DFMPT]"
result = "14.1 ± 2.6*,^f,^g ml"

[[record]]
compound = "O=C1CSCN1c1cc(Cl)cc(Cl)c1 [4-DCTD, 3-(3,5-dichlorophenyl)-4-thiazolidinone]"
result = "11.3 ± 2.2*,^c ml"

[[record]]
compound = "O=C1SCCN1c1cc(Cl)cc(Cl)c1 [2-DCTD, 3-(3,5-dichlorophenyl)-2-thiazolidinone]"
result = "4.3 ± 0.3^d ml"


*Q* Notebook entry, male Fischer 344 rats assay: Twenty-four-hour urine volume of CC1SC(=O)N(c2cc(Cl)cc(Cl)c2)C1=O (centres unmarked) [DPMT] = ?
*A* 8.1 ± 1.7^a ml

*Q* API: value(readout=Twenty-four-hour urine volume, system=male Fischer 344 rats) for record O=C1CSC(=O)N1c1ccccc1 [PTZD, 3-phenyl-2,4-thiazolidinedione]
*A* 11.5 ± 3.2^d ml

*Q* Notebook: pull reported Twenty-four-hour urine volume for male Fischer 344 rats, entry O=C1CSC(=O)N1c1ccc(Cl)cc1 [CPTD, 3-(4-chlorophenyl)-2,4-thiazolidinedione]
*A* 12.4 ± 4.6*,^c ml
